Reported %Inh is given for each of the following molecules.
Tested on: DRAK1;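 further: KINOMEscan kinase panel screen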
Construct: gene STK17A
test conditions: concentration: 1 μM,replicates: in singlicate; n = 1
Field format: number, assumed %, no unit text.

Some molecules with recorded %Inh:
molecule	units text	%Inh
Cc1cc2cn[nH]c2cc1-c1cccc2c(N)c(C(N)=O)nnc12	%	47
Cc1ccc2c(-c3ccncc3)c(-c3ccc(F)cc3)nn2c1.Cl	%	0
Cc1n[nH]c2ccc(-c3cc(OC[C@@H](N)Cc4ccccc4)cnc3-c3ccoc3)cc12.O=C(O)C(F)(F)F.O=C(O)C(F)(F)F	%	0

// query Request the reported %Inh associated with `CNC(=O)c1ccccc1Sc1ccc2c(/C=C/c3ccccn3)n[nH]c2c1`
// result 76

// query Request the reported %Inh associated with `Cc1occc1-c1nc(N)c(OC[C@@H](N)Cc2c[nH]c3ccccc23)cc1-c1cc2c(C)n[nH]c2cn1`
// result 0

// query Request the reported %Inh associated with `C=CC(=O)Nc1cc2c(Nc3ccc(F)c(Cl)c3)ncnc2cc1OCCCN1CCOCC1`
// result 2

// query Request the reported %Inh associated with CN(C)CC(O)COc1ccc(Nc2nccc(-c3cnn4nc(N5CCOCC5)ccc34)n2)cc1 (centres unmarked)
// result 99.7

// query Request the reported %Inh associated with `O=C(NCCCN1CCOC1=O)c1cnc(NCc2cc(Cl)ccc2Cl)nc1NC1CCCC1`
// result 0

// query Request the reported %Inh associated with `CCN(CC)CCCCNc1ncc2cc(-c3c(Cl)cccc3Cl)c(NC(=O)NC(C)(C)C)nc2n1`
// result 0

// query Request the reported %Inh associated with `CN(C)CCOc1ccc(-c2cc(-c3c[nH]nc3-c3ccccn3)ccn2)cc1`
// result 18

// query Request the reported %Inh associated with `NC(=O)c1cc(-c2ccccc2)cc2c(C3CCNCC3)c[nH]c12`
// result 0

// query Request the reported %Inh associated with `Cl.Cl.NC[C@H](Cc1ccc(C(F)(F)F)cc1)NC(=O)c1cc(Br)c(-c2ccnc3[nH]ccc23)s1`
// result 18

// query Request the reported %Inh associated with `Cc1ccc(-n2nc(C(C)(C)C)cc2NC(=O)Nc2ccc(OCCN3CCOCC3)c3ccccc23)cc1`
// result 0

// query Request the reported %Inh associated with `C[C@H]1Oc2cc(cnc2N)-c2c(nn(C)c2C#N)CN(C)C(=O)c2ccc(F)cc21`
// result 2
